- Test system: wheat
- MEASUREMENT NOTES: Test B pre/postemergence wheat
- Type: in vivo, Triticum aestivum
- CONDITION LABEL: Postemergence, Rate 500 g/ha; scale 0 to 10, 0 is no effect, 10 is complete control
List of Plant response rating, Wheat values.

SMILES NOTATION	Plant response rating, Wheat
Cc1noc(C)c1Cn1c(=O)on(C(=O)N(c2ccc(F)cc2F)C(C)C)c1=O	3
COCCOCn1c(=O)on(C(=O)N(c2ccc(F)cc2F)C(C)C)c1=O	4
CCOCn1c(=O)on(C(=O)N(c2ccc(Cl)cc2)C(C)C)c1=O	5
COC(=O)CCCn1c(=O)on(C(=O)N(c2ccc(Cl)cc2)C(C)C)c1=O	0

====

- Test system: sugar beet
- MEASUREMENT NOTES: Test B pre/postemergence sugar beet
- Format: in vivo, Beta vulgaris
- CONDITION LABEL: Rate 62 g/ha, Postemergence; scale of 0 to 10 where 0 is no effect and 10 is complete control
List of Sugarbeets plant response rating values.
OBSERVED PROPERTY: Sugarbeets plant response rating

COMPOUND	ASSAY TARGET	EXPERIMENTAL VALUE
CC(C)N(C(=O)n1oc(=O)n(CC2CO2)c1=O)c1ccc(F)cc1 (centres unmarked) [Compound 188]	sugar beet	0
CC(C)N(C(=O)n1oc(=O)n(C)c1=O)c1ccc(Cl)cc1 [Compound 137]	sugar beet	3
CC(C)N(C(=O)n1oc(=O)n(C(C)c2ccccc2)c1=O)c1ccc(Cl)cc1 (centres unmarked) [Compound 133]	sugar beet	0
CC(C)N(C(=O)n1oc(=O)n(C(C)C)c1=O)c1ccc(F)cc1F [Compound 109]	sugar beet	3
CC(C)N(C(=O)n1oc(=O)n(C2(C)CC2)c1=O)c1ccc(F)cc1 [Compound 362]	sugar beet	0
COc1nc(OC)nc(N(C(=O)n2oc(=O)n(-c3c(C)cccc3C)c2=O)C(C)C)n1 [Compound 180]	sugar beet	0
Cc1onc(-c2ccccc2)c1-n1c(=O)on(C(=O)N(c2ccc(F)cc2)C(C)C)c1=O [Compound 100]	sugar beet	0
CCN(C(=O)n1oc(=O)n(N(C)c2ccccc2)c1=O)C1CCCCC1 [Compound 183]	sugar beet	0

====

- Tested on: pigweed
- MEASUREMENT NOTES: Test B pre/postemergence pigweed
- Assay type: in vivo, Amaranthus retroflexus
- CONDITION LABEL: Preemergence, Rate 62 g/ha; scale of 0 to 10 where 0 is no effect and 10 is complete control
- Method: […] At the same time, these crop and weed species were also treated with postemergence applications of test chemicals formulated in the same manner. […] Treated plants and controls were maintained in a greenhouse for twelve to sixteen days, after which all species were compared to controls and visually evaluated. […]
List of Plant response rating, Redroot pigweed values.

MOLECULE	Plant response rating, Redroot pigweed
CCCCn1c(=O)on(C(=O)N(c2ccc(Cl)cc2)C(C)C)c1=O [Compound 527]	0
CC(C)N(C(=O)n1oc(=O)n(CCC2OCCCO2)c1=O)c1ccc(F)cc1F [Compound 502]	9
CC(C)C(=O)Cn1c(=O)on(C(=O)N(c2ccc(F)cc2F)C(C)C)c1=O [Compound 486]	6
CCC=CCn1c(=O)on(C(=O)N(c2ccccc2)C(C)C)c1=O [Compound 454]	0
CC(C)N(C(=O)n1oc(=O)n(CC2=CCCN(C)C2)c1=O)c1ccccc1 [Compound 497]	0
